// provenance: patent US10669235B2

Please provide measured IC50 for the entries that follow.
# system-tested: PDGFRβ (Homo sapiens (Human))
# Sequence (P09619 33-1106): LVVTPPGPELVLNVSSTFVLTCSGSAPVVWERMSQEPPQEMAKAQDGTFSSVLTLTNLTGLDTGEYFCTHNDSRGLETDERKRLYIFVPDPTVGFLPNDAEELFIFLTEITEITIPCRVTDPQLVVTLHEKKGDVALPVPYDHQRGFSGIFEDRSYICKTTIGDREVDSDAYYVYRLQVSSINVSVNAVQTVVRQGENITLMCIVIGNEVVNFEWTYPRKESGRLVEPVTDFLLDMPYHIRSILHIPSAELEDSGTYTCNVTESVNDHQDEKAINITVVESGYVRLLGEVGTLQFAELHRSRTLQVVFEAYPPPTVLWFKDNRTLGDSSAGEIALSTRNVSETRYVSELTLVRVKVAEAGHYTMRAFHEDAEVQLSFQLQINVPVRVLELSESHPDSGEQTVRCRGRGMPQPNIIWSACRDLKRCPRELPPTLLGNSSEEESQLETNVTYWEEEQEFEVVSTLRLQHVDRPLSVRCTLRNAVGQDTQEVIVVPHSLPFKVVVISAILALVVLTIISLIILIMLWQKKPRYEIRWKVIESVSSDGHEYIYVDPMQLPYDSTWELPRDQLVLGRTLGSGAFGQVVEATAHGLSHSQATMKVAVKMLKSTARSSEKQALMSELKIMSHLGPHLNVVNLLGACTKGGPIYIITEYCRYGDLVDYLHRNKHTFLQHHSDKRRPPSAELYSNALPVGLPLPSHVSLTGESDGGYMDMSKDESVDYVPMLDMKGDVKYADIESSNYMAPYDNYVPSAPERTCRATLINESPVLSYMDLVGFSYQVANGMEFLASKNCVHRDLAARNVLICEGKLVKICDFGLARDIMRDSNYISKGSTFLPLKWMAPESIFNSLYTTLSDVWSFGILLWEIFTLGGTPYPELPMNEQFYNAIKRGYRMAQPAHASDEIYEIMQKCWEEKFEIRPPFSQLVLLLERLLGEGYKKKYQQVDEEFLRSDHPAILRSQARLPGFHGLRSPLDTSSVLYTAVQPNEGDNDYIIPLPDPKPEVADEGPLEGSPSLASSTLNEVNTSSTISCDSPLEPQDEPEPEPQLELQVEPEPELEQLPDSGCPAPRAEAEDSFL
# protocol-details: PDGF-BB induced phosphorylation of PDGFRβ in fibroblasts (MRC5, HTRF)
# Assay type: cell-based
# condition-parameters: MRC5 cells, PDGFBB stimulation; read-out: PDGFBB-induced PDGFRβ phosphorylation in MRC5 cells (IC50)
Where a name gives a salt, the structure may show the parent alone.
Answer with the figure and its unit, nothing else.

Asked: Look up and report IC50, with PDGFRβ (Homo sapiens (Human)) as system, for COC(=O)c1cc2c(cc1C)/C(=C(/Nc1ccc(C(=O)NCC(=O)N3CCN(CCO)CC3)cc1)c1ccccc1)C(=O)N2 [Example 7]
Given back: 6.04 nM

Asked: Look up and report IC50, with PDGFRβ (Homo sapiens (Human)) as system, for COC(=O)c1cc2c(cc1C)/C(=C(/Nc1ccc(S(=O)(=O)N3CCN(CCO)CC3)cc1)c1ccccc1)C(=O)N2 [Example 26, formate]
Given back: 18.1 nM

Asked: Look up and report IC50, with PDGFRβ (Homo sapiens (Human)) as system, for COC(=O)c1cc2c(cc1C)/C(=C(/Nc1ccc(C(=O)N3CCC4(CC3)C(=O)NCCCN4C)cc1)c1ccccc1)C(=O)N2 [Example 43]
Given back: 2.31 nM

Asked: Look up and report IC50, with PDGFRβ (Homo sapiens (Human)) as system, for COC(=O)c1cc2c(cc1C)/C(=C(/Nc1ccc(C(=O)NCCN3CCCN(C)CC3)cc1)c1ccccc1)C(=O)N2 [Example 5]
Given back: 15 nM

Asked: Look up and report IC50, with PDGFRβ (Homo sapiens (Human)) as system, for COC(=O)c1cc2c(cc1C)/C(=C(/Nc1ccc(C(=O)N3CCN(C)CC3)cc1)c1ccccc1)C(=O)N2 [Example 17]
Given back: 4.48 nM

Asked: Look up and report IC50, with PDGFRβ (Homo sapiens (Human)) as system, for COC(=O)c1cc2c(cc1C)/C(=C(/Nc1ccc(C(=O)N3CCC(C(N)=O)(N4CCCCC4)CC3)cc1)c1ccccc1)C(=O)N2 [Example 47]
Given back: 3.67 nM

Asked: Look up and report IC50, with PDGFRβ (Homo sapiens (Human)) as system, for COC(=O)c1cc2c(cc1C)/C(=C(/Nc1ccc(C(=O)N(CCO)CCN(C)C)cc1)c1ccccc1)C(=O)N2 [Example 32]
Given back: 4.53 nM

Asked: Look up and report IC50, with PDGFRβ (Homo sapiens (Human)) as system, for COCCN1CCC(NC(=O)c2ccc(N/C(=C3\C(=O)Nc4cc(C(=O)OC)c(C)cc43)c3ccccc3)cc2)CC1 [Example 20]
Given back: 38.9 nM

Asked: Look up and report IC50, with PDGFRβ (Homo sapiens (Human)) as system, for COC(=O)c1cc2c(cc1C)/C(=C(/Nc1ccc(C(=O)NCCN3CCNC(=O)C3)c(F)c1)c1ccccc1)C(=O)N2 [Example 55]
Given back: 9.13 nM

Asked: Look up and report IC50, with PDGFRβ (Homo sapiens (Human)) as system, for COC(=O)c1cc2c(cc1C)/C(=C(/Nc1ccc(C(=O)N3CC[C@@H](CN(C)C)[C@H](O)C3)cc1)c1ccccc1)C(=O)N2 [Example 33]
Given back: 2.32 nM

Asked: Look up and report IC50, with PDGFRβ (Homo sapiens (Human)) as system, for COC(=O)c1cc2c(cc1C)/C(=C(/Nc1ccc(S(=O)(=O)NCCN(C)C)cc1)c1ccccc1)C(=O)N2 [Example 25, formate]
Given back: 24.2 nM

Asked: Look up and report IC50, with PDGFRβ (Homo sapiens (Human)) as system, for COCCNC(=O)CN1CCN(C(=O)c2ccc(N/C(=C3\C(=O)Nc4cc(C(=O)OC)c(C)cc43)c3ccccc3)cc2)CC1 [Example 39]
Given back: 5.95 nM

Asked: Look up and report IC50, with PDGFRβ (Homo sapiens (Human)) as system, for COC(=O)c1cc2c(cc1C)/C(=C(/Nc1ccc(C(=O)N[C@H]3CCCN(C)C3)cc1)c1ccccc1)C(=O)N2 [Example 27]
Given back: 43 nM

Asked: Look up and report IC50, with PDGFRβ (Homo sapiens (Human)) as system, for COC(=O)c1cc2c(cc1C)/C(=C(/Nc1ccc(C(=O)NCCN3CCNC(=O)C3)cc1)c1ccccc1)C(=O)N2 [Example 9]
Given back: 14.2 nM

Asked: Look up and report IC50, with PDGFRβ (Homo sapiens (Human)) as system, for COC(=O)c1cc2c(cc1C)/C(=C(/Nc1ccc(C(=O)NC3CCN(CCO)CC3)cc1)c1ccccc1)C(=O)N2 [Example 49]
Given back: 1.25 nM

Asked: Look up and report IC50, with PDGFRβ (Homo sapiens (Human)) as system, for COC(=O)c1cc2c(cc1C)/C(=C(/Nc1ccc(C(=O)N3CCC(C(=O)NCCN(C)C)CC3)cc1)c1ccccc1)C(=O)N2 [Example 31]
Given back: 5.52 nM

Asked: Look up and report IC50, with PDGFRβ (Homo sapiens (Human)) as system, for COC(=O)c1cc2c(cc1C)/C(=C(/Nc1ccc(C(=O)N3CCN(CCO)CC3)cc1)c1ccccc1)C(=O)N2 [Example 19]
Given back: 5.04 nM

Asked: Look up and report IC50, with PDGFRβ (Homo sapiens (Human)) as system, for COC(=O)c1cc2c(cc1C)/C(=C(/Nc1ccc(C(=O)N(C)[C@H]3CN(C)C[C@@H]3O)cc1)c1ccccc1)C(=O)N2 [Example 48]
Given back: 2.29 nM

Asked: Look up and report IC50, with PDGFRβ (Homo sapiens (Human)) as system, for COC(=O)c1cc2c(cc1C)/C(=C(/Nc1ccc(C(=O)N3CCCN(CCO)CC3)cc1)c1ccccc1)C(=O)N2 [Example 46]
Given back: 2.49 nM

Asked: Look up and report IC50, with PDGFRβ (Homo sapiens (Human)) as system, for COC(=O)c1cc2c(cc1C)/C(=C(/Nc1ccc(C(=O)NCCN(C)CCO)cc1)c1ccccc1)C(=O)N2 [Example 51]
Given back: 6.71 nM

Asked: Look up and report IC50, with PDGFRβ (Homo sapiens (Human)) as system, for COC(=O)c1cc2c(cc1C)/C(=C(/Nc1ccc(C(=O)NCCN3CCN(C(C)=O)CC3)cc1)c1ccccc1)C(=O)N2 [Example 24]
Given back: 12.3 nM

Asked: Look up and report IC50, with PDGFRβ (Homo sapiens (Human)) as system, for COC(=O)c1cc2c(cc1C)/C(=C(/Nc1ccc(C(=O)N(C)C3CCN(CCO)CC3)cc1)c1ccccc1)C(=O)N2 [Example 41]
Given back: 7.4 nM

Asked: Look up and report IC50, with PDGFRβ (Homo sapiens (Human)) as system, for COC(=O)c1cc2c(cc1C)/C(=C(/Nc1ccc(C(=O)NCCN3CCCN(C(C)=O)CC3)cc1)c1ccccc1)C(=O)N2 [Example 34]
Given back: 4.71 nM

Asked: Look up and report IC50, with PDGFRβ (Homo sapiens (Human)) as system, for COC(=O)c1cc2c(cc1C)/C(=C(/Nc1ccc(C(=O)NCCN3CCNC(=O)CC3)cc1)c1ccccc1)C(=O)N2 [Example 53]
Given back: 6.5 nM

Asked: Look up and report IC50, with PDGFRβ (Homo sapiens (Human)) as system, for COC(=O)c1cc2c(cc1C)/C(=C(/Nc1ccc(C(=O)NCC3(N(C)C)CCOCC3)cc1)c1ccccc1)C(=O)N2 [Example 36]
Given back: 9.96 nM
